# study-target: T1, human TFPI alpha (full-length TFPIα) (human, UniProt P10646 29-304)
# T1 construct: Analyte in SPR and added to plasma (2 or 20 nM) in thrombin generation assays; also called human TFPIα
# test-summary: SPR (Biacore T200), Fab captured on Human Fab Binder, TFPIα in solution, 1:1 fit
measured-property: kon (M⁻¹ s⁻¹)
Answers are plain numbers, in M⁻¹ s⁻¹.

Quick check: kon of Fab 0095 (Fab fragment of mAb 2014) (Fab, V domains shown, KPI-2 specific) VH: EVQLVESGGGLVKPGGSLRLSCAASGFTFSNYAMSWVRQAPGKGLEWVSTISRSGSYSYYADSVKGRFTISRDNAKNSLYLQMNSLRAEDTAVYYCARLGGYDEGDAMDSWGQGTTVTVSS VL: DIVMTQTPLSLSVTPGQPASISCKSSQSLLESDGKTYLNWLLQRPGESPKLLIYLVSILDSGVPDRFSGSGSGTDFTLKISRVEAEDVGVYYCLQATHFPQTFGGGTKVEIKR ? 3.9e+06
